Test Method Notes: yeast display, Sf9 membrane polyspecificity reagent, FACS + sequencing; frameworks hold sequencing errors

{"columns": ["Ordered Residues", "polyreactivity (PSR sort gate)"],
 "data": [
  ["QVQLEESGVCLVQAGGSLRLSCAASGYIFISYARGWYREAPGKEREFVAAITGDGGSTYADSEKGRFTISRDNAKNTVYLLMNSLKPEDTAVYYCAVDGYGGEADYEFDHWGQGTQVNVSS", "low polyreactivity"],
  ["QDQLVESGGGLVQAGGSLRLSCAASGHIFPYNAMGWYRQAPGKEREIVAASSFRGGSTYYADSVKGRFTISRDNAKNTVYLQMNSLKPEDTAVDYCAKRSYPWGQGTQVTVSS", "low polyreactivity"]
]}

* * *

Test Method Notes: yeast display, Sf9 membrane polyspecificity reagent, FACS + sequencing; frameworks hold sequencing errors
Measured Metric: polyreactivity (PSR sort gate)

Please review the entries below; each comes with its answer.
{"columns": ["Ordered Residues", "polyreactivity (PSR sort gate)"],
 "data": [
  ["QVQLVESGGGLVQAGGSLRLSCAASGFTFYYYAMGWYRQAPGKERELVAAITSGGSTYYADSVKGRFTISRDNAKNTVYLQMNSLKPEDTAVYYCNTVHYNLDYEYDYWGQGTQGTVSS", "low polyreactivity"],
  ["QVQLVESGGGLVQAGGSLRLSCAASGNIFSRYAMGWYRQAPGKERELVAAISKSGGSTYYADSVKGRFTISRDNAKNTVYLQMNSLKPEDTAVYYCAAYTFFLGYPEFDYWGQGTQVTVSS", "high polyreactivity"],
  ["QVQLVESGGGLVQAGGSLRLSCAASGSSFPVNGIGWYRQAPGKERELVAVITDSDGSTYYADSVKGRFTISRDNAKNTVYLQMNSLKPEDTAVYYCAADDYAYSYGYWLTYDYWGQGTQVTVSS", "low polyreactivity"],
  ["QVQLVESGGGLVQAGGSLRLSCAASGSIFYYYAMGWYRQAPGKERELVASITSGGSTYYADSVKGRFTISRDNAKNTVYLQMNILKPEDTAVYYCAADVYRTWYWWFDYWGQGTQVTVSS", "high polyreactivity"],
  ["QVQLVESGGGLVQAGGSLRLSSAASGSIFVLYAMGWYRQAPGKERELVAAIDVGGGSTYYADSVKGRFTISRDNAKNTVYLQMNSLKPEDTAVYYCAAELYYTYRWYDYWGQGTQVTVSS", "high polyreactivity"]
]}

I'm hoping you can list polyreactivity (PSR sort gate) for every sequence here, please.
1. QVQLVESGGGLVQAGGSLRLSSAASGYTYYVYAMGWYRQAPGKERELVAAISGGSNTYYADSVKGRFTISRDNAKNTVYLQMNSRKPEDTAVFYCAKSSTTYRQRARYDYWGLGTQVTVSS
2. QVQLVESGGGLVQAGGSLRLSCASSGFIIYSYAMGWYRQAPGKERELVAVISSRGGTTYYADSVKGRFTISRDNAKNTVYLQMNSLKPEDTAVYYCAADVWGPYDYWGQGTQVTVSS
3. QVQLVESGGGLVQAGGSLRLSCAASGRIFGAYAMGWYRQATGKERELVAAIRWSGARTYYADSVKGRFTISRDNAKNTVYLQMNSLKPEDTAVYYCATRQAYRPLKFDYWGQGTQVTVSS
4. QVQLVESGGGLVQEGGSLRLSCAASGRTFAVYAMGWYRQAPGKERELVAAITYGGGRTYYADSVKGRFTISRDNAKNTVYLQMNSLKPEDTAVYYCAADYYGTDYDYWGQGTQVTVSS
5. QVQLVESGGGLVQAGGSLRLSCAASGRIFRYYAMGWYRQAPGKETELVAAISKSGGGTFYADSVKGRFTISRDNAKNPVYLQMNSLKPEDTAVYYCAARDKGLGKHDYWGQGTQVTVSS

**A:**
1. high polyreactivity
2. low polyreactivity
3. high polyreactivity
4. low polyreactivity
5. high polyreactivity

Give me polyreactivity (PSR sort gate) for each of these sequences, listed below.
1. QVQLVESGGGLVQAGGSLRLSCAASGFTFGINAMGWSRQAPGKERELVASISSGSSTTYADSVKGRFTISRDNAKNTVYLQMNRLKPEDTAVYYCNARPFHIYWRYDYWGQGTQVTVSS
2. QVQLVESWGGLFQAGGSLRLSCAASGRTFSYNAMGWYRQAPGKERELVAAMTWRGSTTYYADSVKGRFTISRDHAKNTVYLQMNSLKPEDTAVYYCADATGQPYILDYWGQGTQVTVSS
3. QVQLVESGGGLVQAGGSLRLSCAASGRTIYGYAMGWYRQAPGKERELVARIRSGGSTNYADSVKGRFTISRDNAKNTVYLQMNSLKPEDTAVYYCAARPGAAGYKYYYWGQGTQVTVSS
4. QVQLVESRGVLVQAGGSLRLSCAASGSTFTGYAMGWYRQAPGKERELVAGITGSGGSTYYADSVMGRFTISRDNAKITVYFQMNSLKPVDTAVYYCAAACWYHYVWLDYFWGQGTQVTVSS
5. QVQLVESGGGLVQAGGSLRLSSAASGSTFGIYAMGWYRQAPGKERELVAAISSGGSTNYADSVKGRFTISRDNAKNTVYLQMNSLKPEDTAVYYCAVESVYEYGGYVDSAFDYWGQGTQVTVSS
6. QVQLVESGGGLVQAGGSLRLSCAASGRIFDGYAMGWYRQAPGKESELVAAISSRGGRTYYADSVKGRFTISRDNAKNTVYLQMNSLKPEDTAVYYCAGDDPYGEGDYWGQGTQVTVSS

**A:**
1: low polyreactivity; 2: low polyreactivity; 3: high polyreactivity; 4: low polyreactivity; 5: low polyreactivity; 6: low polyreactivity

For every record below, what is its polyreactivity (PSR sort gate)?
1. QDQLVESGGGLVQAGGSLRLSCAASGSNFAVYAMGWSRQAPGKERELVAAISYRGARTYYADSVKGRFTISRDNAKNTVYLQMNSLKPEDTAVYYCAAQGVTSPGVDSWGQGTQVTVSS
2. QVQLVESGGGLVQAGGSLRLSCATSGRTYVPAMGWYRQAPGKERALVAAITSSGITYYADSVKGRVTISRDNAKNTVYLQMNSLNPEDTAVYYCATSYSNRWGWKYNYWGQGTQVTVSS
3. QVQLVESGGGLVQAGGSLRLSCAASGSIFTPYAMGWYRQAPGKERELVAAISRSGGSTYYADSVKGRFTISRDKAKNTVYLQMNRLKPADSAVYYCAADVQTLITLGQFDYWGQGTQVTVSS
4. QVQLVESGGGLVQAGGSLRLSCAASGSTFAGNAMGWYRQAPGKERELVAAIDSSTGSTYYADSVKGRFTISRDNAKNTVYLQMNSLKPEDTPVYYCSREYYEGYEYWGLGTQVTVSS
5. QVQLVESGGGLVQAGGSLRLSCAASGSTFDPYAMGWYRQAPGKERELVAGISASGGSTYADSVKGRFTISRDNAKNTVYLQMNSLKPEDTACYYCAADTYLIRGPPDEEYWGQGTQVTVSS

**A:**
high polyreactivity
high polyreactivity
low polyreactivity
low polyreactivity
low polyreactivity
